method_summary: NCI Yeast Anticancer Drug Screen. Data for the bub3 strain (AID 167)
experimental_context: S. cerevisiae bub3 mutant strain, at 5.0 µM (retest, dose inferred, filed as 0.5)
About 79,000 compounds went through this panel and 15% of them were active in at least one assay; those are over-represented in the sample as a whole. The source made the active and inactive calls. Rule as the data show it: active = growth inhibition above about 70%; inactive = the rest.
Outcome field: choose from t for active, f for inactive

Some solved cases for reference:
{"compound": "O=C(/C(Cl)=N/O)c1ccc(-c2ccccc2)cc1", "class_name": "f"}
{"compound": "Cc1nnc(N/N=C/c2ccc([N+](=O)[O-])o2)[nH]c1=O", "class_name": "f"}
{"compound": "COc1cc(/C=C/C(=O)CC(=O)/C=C/c2ccc(O)c(OC)c2)ccc1O", "class_name": "f"}
{"compound": "Oc1c(Cl)cc(Cl)cc1C=NCC1CCC(CN=Cc2cc(Cl)cc(Cl)c2O)CC1 (configuration not stated)", "class_name": "t"}
{"compound": "COc1cccc2c1C(=O)c1c(O)c3c(c(O)c1C2=O)C[C@@](O)(C(=O)CO)C[C@@H]3OC1CC(OC(C)=O)C(OC(C)=O)C(C)O1 (some centres not stated)", "class_name": "f"}
{"compound": "N#C/C(=N\\O)C(N)=O", "class_name": "f"}
{"compound": "COc1cccc(NC(=O)c2c(SC)n[nH]c2N)c1", "class_name": "f"}
{"compound": "CN1CCc2cc3c(c4c2C1C(O)c1ccccc1-4)OCO3 (configuration not stated)", "class_name": "f"}

Any idea what this test logged for NC(=S)N/N=C/c1ncccc1O ?
f

Any idea what this test logged for O=Nc1ccc2ccccc2c1O ?
f

Any idea what this test logged for S=c1sc2ccccc2n1CCNc1ccccc1 ?
f

Any idea what this test logged for O=C(O)c1cc2c(s1)C(=O)c1sccc1C2=O ?
f

----------
method_summary: NCI Yeast Anticancer Drug Screen. Data for the mlh1 rad18 strain (AID 175)
experimental_context: S. cerevisiae mlh1 rad18 strain growth inhibition; at 5.0 µM (retest, dose inferred, filed as 0.5); stronger effect = higher value
About 79,000 compounds went through this panel and 15% of them were active in at least one assay; those are over-represented in the sample as a whole.
measurement_type: growth inhibition (%)
Report as a plain number; the unit % is understood.

{"molecule": "O=[N+]([O-])c1ccc(Oc2ccccc2Cl)c([N+](=O)[O-])c1", "measurement_type": "growth inhibition", "assay_value": 29}
{"molecule": "N#CC(I)CS(=O)(=O)c1ccccc1 (stereo unspecified)", "measurement_type": "growth inhibition", "assay_value": 99}
{"molecule": "O=C/C=C/c1ccc([N+](=O)[O-])cc1", "measurement_type": "growth inhibition", "assay_value": 72}
{"molecule": "CCCCCCCCCCCC[N+]1(CCCCCCCCCCCC)CCCC(C)C1 (stereo unspecified)", "measurement_type": "growth inhibition", "assay_value": 99}

Would you kindly share the measured growth inhibition for Cc1ccc(NC(=S)C#N)cc1Cl ?
45

Would you kindly share the measured growth inhibition for Oc1ccc(Cl)cc1C(c1cc(Cl)ccc1O)C(Cl)(Cl)Cl ?
99

Would you kindly share the measured growth inhibition for Oc1ccc(Cc2cccc(Cl)c2)c(O)c1 ?
-3

Would you kindly share the measured growth inhibition for S=C1NC2=C(COc3ccccc32)C(c2ccc(Cl)cc2)N1 (stereo unspecified) ?
86

Would you kindly share the measured growth inhibition for CC(=O)Oc1c(Br)cc(Br)cc1C(OC(C)=O)OC(C)=O ?
-5

Would you kindly share the measured growth inhibition for Cc1nnc(N/N=C/c2ccc([N+](=O)[O-])o2)[nH]c1=O ?
8

Would you kindly share the measured growth inhibition for CCN(CC)CCNc1ccc([N+](=O)[O-])c2sc3ccccc3c(=O)c12 ?
33

Would you kindly share the measured growth inhibition for O=C(CCc1ccccc1)ON1C(=S)NC(c2ccccc2)(c2ccccc2)C1=S ?
13

----------
Let's look at some molecules and their measured growth inhibition.
method_summary: NCI Yeast Anticancer Drug Screen. Data for the mlh1 rad18 strain (AID 175)
experimental_context: S. cerevisiae mlh1 rad18 strain growth inhibition; at 50.0 µM (retest, dose inferred, filed as 5.0); stronger effect = higher value
This is part of a sample that, as a whole, favours compounds with a hit. Of some 79,000 tested, about 15% had one in any assay.
Report as a plain number; the unit % is understood.

{"molecule": "COC(=O)c1ccc(=O)c2nc3/c(=C/O)c(O)cc(=O)c3[nH]c12", "reading_unit": "%", "growth inhibition": 95}
{"molecule": "C1CCC(CCCc2nn[nH]n2)CC1", "reading_unit": "%", "growth inhibition": 61}
{"molecule": "Oc1ccc(Nc2ccc3ccccc3c2)cc1", "reading_unit": "%", "growth inhibition": 98}
{"molecule": "C=C1C(=O)OC2CC1C(OC(=O)/C=C/c1ccccc1)C/C(C)=C/CC/C(C)=C/CCC2(C)O (configuration not stated)", "reading_unit": "%", "growth inhibition": 94}

Would you kindly share the measured growth inhibition for NNc1cccc([N+](=O)[O-])c1 ?
94

Would you kindly share the measured growth inhibition for CCc1cnc2ccccc2c1/C=C/c1ccc(N(C)C)cc1 ?
94

Would you kindly share the measured growth inhibition for O=C(CCl)N(c1ccccc1)c1ccccc1 ?
73

----------
method_summary: NCI Yeast Anticancer Drug Screen. Data for the cln2 rad14 strain (AID 165);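 also: 0% = growth equal to vehicle treated cultures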
experimental_context: S. cerevisiae cln2 rad14 strain, at 50.0 µM (retest, dose inferred, filed as 5.0)
About 79,000 compounds went through this panel and 15% of them were active in at least one assay; those are over-represented in the sample as a whole. Active and inactive are the calls of the source. Cut-off read from the data, not from the text of the source: active = growth inhibition above about 70%; inactive = the rest.
Outcome field: choose from active, inactive

{"compound": "O=C1C=CC2C3C(=O)N(c4ccccc4)C(=O)C3C1N2Cc1ccccc1 (configuration not stated)", "class_name": "inactive"}
{"compound": "CCCCCCCCCC(=O)CCCCCCCCC", "class_name": "inactive"}
{"compound": "O=C1c2ccccc2Cc2cccc(Cl)c21", "class_name": "inactive"}
{"compound": "Nc1c(N)c(Cl)c(Cl)c(Cl)c1Cl", "class_name": "active"}
{"compound": "O=Cc1ccc(O)c(O)c1O", "class_name": "inactive"}

Any idea what this test logged for CC(C)CNC(=O)C(C)O (configuration not stated) ?
inactive

Any idea what this test logged for CC1=CC(=O)C=CC1(C)C(Cl)(Cl)Cl (configuration not stated) ?
inactive

Any idea what this test logged for O=C1C=CC(=O)N1C1CCCCCCCCCCC1 ?
active

Any idea what this test logged for CC1(C)CCC2(C(=O)O)C(O)CC3(C)C(=CCC4C5(C)CCC(OC6OCC(O)C(O)C6OC6OCC(O)C(O)C6OC6OCC(O)C(OC7OC(CO)C(O)C(O)C7O)C6O)C(C)(C)C5CCC43C)C2C1 (configuration not stated) ?
active

Any idea what this test logged for CCCCC(=O)c1ccc([N+](=O)[O-])o1 ?
active

Any idea what this test logged for S=C(S)OCN1CCOCC1 ?
inactive

Any idea what this test logged for CCCCOS(=O)(=O)c1ccccc1 ?
inactive

Any idea what this test logged for NC(=S)Nc1ccc2c(c1)Cc1ccccc1-2 ?
inactive

Any idea what this test logged for CCCCCCCCCCCCCCCC[N+]1(C)CCCC1c1cccnc1 (configuration not stated) ?
active

----------
method_summary: NCI Yeast Anticancer Drug Screen. Data for the mec2-1 strain (AID 157)
experimental_context: S. cerevisiae mec2-1 strain, at 5.0 µM (retest, dose inferred, filed as 0.5)
About 79,000 compounds went through this panel and 15% of them were active in at least one assay; those are over-represented in the sample as a whole. The source made the active and inactive calls. Rule as the data show it: active = growth inhibition above about 70%; inactive = the rest.
Outcome field: choose from True = active, False = inactive

Any idea what this test logged for Cc1cc(O)c2c(c1)C(=O)C(c1c(C)cc3c(c1O)C(=O)C1OC1C3=O)=CC2=O (stereo not given) ?
True

Any idea what this test logged for Oc1ccccc1N=Cc1ccccc1 ?
False

Any idea what this test logged for CCCCCCCCCCCC[n+]1ccc2ccccc2c1 ?
True

Any idea what this test logged for CC1(C)CCCC2=C1C(=O)N(SC(Cl)(Cl)Cl)C2=O ?
True

Any idea what this test logged for Oc1c(Cl)cc(Cl)cc1C=NCC1CCC(CN=Cc2cc(Cl)cc(Cl)c2O)CC1 (stereo not given) ?
False

Any idea what this test logged for COc1c(C)c2c(c(O)c1C/C=C(\C)CCC(=O)O)C(=O)OC2 ?
False

Any idea what this test logged for O=C(CCl)N1c2ccccc2Sc2c1ccc1ccccc21 ?
False

Any idea what this test logged for CC(CSc1n[nH]c(=S)s1)c1ccccc1 (stereo not given) ?
False

Any idea what this test logged for Cc1cc(C(=O)c2ccc(Cl)cc2)ccc1O ?
False

Any idea what this test logged for O=C1CSC(=S)N1Cc1cccnc1 ?
False

----------
Let's look at some compounds and their measured growth inhibition.
method_summary: NCI Yeast Anticancer Drug Screen. Data for the rad50 strain (AID 155);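 also: 0% = growth of vehicle-only cultures of the same strain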
experimental_context: S. cerevisiae rad50 strain growth inhibition; at 5.0 µM (retest, dose inferred, filed as 0.5); stronger effect = higher value
This is part of a sample that, as a whole, favours compounds with a hit. Of some 79,000 tested, about 15% had one in any assay.
Report as a plain number; the unit % is understood.

Worked examples follow.
{"compound": "O=[N+]([O-])c1ccc2nc3ccccc3[n+]([O-])c2c1", "reading_unit": "%", "growth inhibition": 25}
{"compound": "CN(C)c1ccc(C(C#N)(c2ccccc2)c2ccc(N(C)C)cc2)cc1", "reading_unit": "%", "growth inhibition": 35}
{"compound": "Oc1ccc(Nc2ccc3ccccc3c2)cc1", "reading_unit": "%", "growth inhibition": 9}
{"compound": "COc1ccc2c(c1)C(OC)C1c3c(cc4c(c3-2)OCO4)CCN1C (configuration not stated)", "reading_unit": "%", "growth inhibition": 24}
{"compound": "CCCCCCCCCCCC1=NCCCN1CCCC", "reading_unit": "%", "growth inhibition": 10}

Would you kindly share the measured growth inhibition for C=CC(=O)OCCOCc1ccccc1 ?
4

Would you kindly share the measured growth inhibition for CCCCCCC1N=C(N)N=C(N)N1c1cccc(Cl)c1 (configuration not stated) ?
17

Would you kindly share the measured growth inhibition for Cc1cc(I)nc2ccccc12 ?
0

Would you kindly share the measured growth inhibition for Nc1c(N)c(Cl)c(Cl)c(Cl)c1Cl ?
38

Would you kindly share the measured growth inhibition for Cc1nnc(N/N=C/c2ccc([N+](=O)[O-])o2)[nH]c1=O ?
-5

Would you kindly share the measured growth inhibition for Cc1cc2nc(CC(=O)c3ccncc3)c(=O)[nH]c2cc1C ?
-28

Would you kindly share the measured growth inhibition for Cc1cc(C)c(C#N)c(Sc2nc(C)c([N+](=O)[O-])c(C)c2C#N)n1 ?
56
